Entry source: patent US20100041597A1

# STUDY TARGET: T1, PKC-α (purified isoform) (Homo sapiens (Human), UniProt P17252 2-672)
# T1 construct: also called PKC-alpha; PKCalpha
# MEASUREMENT DESCRIPTION: competitive ELISA on purified PKC-α vs anti-PKC-α Ab; PRE 100 µM
Assign labels as follows, please: criterion met for binding capacity (%) below 7%; criterion not met for binding capacity (%) equal to or exceeding 7%.

QUERY: Dear reviewer, please state whether Ac-RDAQNLIGISI-NH2 (Synthetic peptide; also called peptide PRE 11) [PRE 11] has binding capacity (%) strictly beneath 7%.
RESULT: criterion met

QUERY: Dear reviewer, please state whether Ac-KDAQNLI-NH2 (Synthetic peptide; also called peptide PRE 12; Ac-KDAQNLI-NH2) [PRE 12] has binding capacity (%) strictly beneath 7%.
RESULT: criterion met

QUERY: Dear reviewer, please state whether Ac-KDAQNLIGISI-NH2 (Synthetic peptide; also called peptide PRE 4) [PRE 4] has binding capacity (%) strictly beneath 7%.
RESULT: criterion not met

QUERY: Dear reviewer, please state whether Ac-ISIGILQNADK-NH2 (Synthetic peptide (retro form of PRE 4); also called peptide PRE 7) [PRE 7] has binding capacity (%) strictly beneath 7%.
RESULT: criterion met

Please turn your attention to the following entry.
QUERY: Dear reviewer, please state whether Ac-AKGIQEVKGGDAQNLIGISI-NH2 (Synthetic peptide; also called peptide PRE 3) [PRE 3] has binding capacity (%) strictly beneath 7%.
RESULT: criterion not met
